Reference source: PubChem BioAssay (Tox21)

- experiment notes: qHTS RealTime-Glo MT Cell Viability Assay in HEK293 cells - 8 hour (AID 1224887); note: nearly all actives have a fitted effect of over 50% in size
- study conditions: RealTime-Glo luminescence; series mostly up to 76.8 µM
Results filed as inconclusive are left out. The source made the active and inactive calls. Calls come from the whole dose curve; as a rule, active = well fitted cell-killing curve with a large enough effect in the repeat runs; inconclusive = weak or mixed curves, or effect the other way; inactive = flat fitted curve, though single readings scatter.
Use one of these outcomes when replying: active, inactive

// known answers, use as guide
# structure smiles, class label
rows = [
    ("ClC(Cl)Cl", "inactive"),
    ("O=C1CCCc2ccccc21", "inactive"),
    ("C=CCc1cc(OC)c(O)c(C(=O)NCCO)c1", "inactive"),
    ("CCN(O)CC", "inactive"),
    ("CC1(C)C(=O)N(Cl)C(=O)N1Br", "inactive"),
]

Query: Per the assay record, what outcome was assigned to `CC(C)OC(C)C` ?
Response: inactive

Query: Answer briefly: the call reported for `C[C@@H](N)C(=O)O` in this assay.
Response: inactive

Query: Just curious, what result did `CC1=C2[C@H](/C=C(\C)C(=O)O)CC[C@@H](C)[C@H]2CC1` get here?
Response: active
